This listing pairs compounds with measured T/C.
# Tested on: CD2F1 mice, L1210 leukemia ip, survival T/C
# Assay notes: NCI In Vivo Anticancer Drug Screen. Data for tumor model L1210 Leukemia (intraperitoneal) in CD2F1 (CDF1) mice
# Assay conditions: endpoint: mean survival time; dose: 12.5 mg/kg/injection; schedule: Q01DX009 (ip); vehicle: other; higher = longer survival
# Protocol: The antitumor activity of compounds was measured in mice bearing transplantable tumors. Survival or tumor size were measured and the results are expressed as the measurement made in the treated group (T) divided by the measurement made in the vehicle treated control group (C). The tumor model used in this assay is L1210 Leukemia (intraperitoneal) in CD2F1 (CDF1) mice
Inconclusive results and toxic doses are left out.

| Item smiles | T/C |
| --- | --- |
| COc1ccc(OC)c2c1CCC(=O)C2 | 102 % of control |
| COc1ccc(C2=NCCc3cc(OC)c(OC)cc32)cc1OC | 90 % of control |
| [N-]=[N+]=CC(=O)CCC(=O)C=[N+]=[N-] | 106 % of control |
| CCOC(=O)C(C(=O)OCC)N(Cc1ccccc1)Cc1ccccc1 | 93 % of control |
